The binders listed here are annotated with their pKd.
Target: T1, hVEGF-A (8-109) (human, UniProt P15692 214-315)
T1 construct: residue numbers count on mature VEGF-A; dimer
T1 sequence (looked up): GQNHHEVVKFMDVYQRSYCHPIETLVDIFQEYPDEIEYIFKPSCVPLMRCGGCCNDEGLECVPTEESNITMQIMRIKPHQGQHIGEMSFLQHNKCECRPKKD
Experiment: SPR
pKd: −log10 of the molar value.
reported.metric: pKd

[
  {
    "binder": "GCDVMQPYWGCGENFLCLAGCVCHWYNSCG (designed binder, also called L2.9.63.1) [VEGF_CKP9.63.1]",
    "reported.metric": "pKd",
    "readout.value": 8.24
  },
  {
    "binder": "GCDVMQPYWGCGESLSCLAGCVCHWYNSCG (designed binder, also called L2.9.63.69) [VEGF_CKP9.63.69]",
    "reported.metric": "pKd",
    "readout.value": 8.16
  },
  {
    "binder": "GCDVMQPYWGCGRDMDCLAGCVCHWYNSCG (designed binder, also called L2.9.63.27) [VEGF_CKP9.63.27]",
    "reported.metric": "pKd",
    "readout.value": 8.85
  },
  {
    "binder": "GCDVMQPYWGCEMDFDCLAGCVCHWYNSCG (designed binder, also called L2.9.63.44) [VEGF_CKP9.63.44]",
    "reported.metric": "pKd",
    "readout.value": 8.92
  }
]
